Experiment: Toxicity liver stage against HepG2, at 10uM
Assay type: cell-based
Set-up: test concentration 10 uM, cell line HepG2-A16-CD81EGFP
Conditions: human, HepG2-A16-CD81EGFP cells; read-out: INHIBITION
QUANTITY_NAME: cytotoxicity at 10 µM (%)

{"MOLECULE": "CCCn1nccc1-c1cc(C2CCN(S(C)(=O)=O)CC2)nc(C)n1", "MEASUREMENT_UNITS": "%", "NUMERIC_READOUT": -10.7}
{"MOLECULE": "CCn1cnnc1CCNc1nc(C)cc(C)c1C#N", "MEASUREMENT_UNITS": "%", "NUMERIC_READOUT": 2.56}
{"MOLECULE": "CCSc1ncccc1C(=O)NCc1ccc(N(C)C)cc1", "MEASUREMENT_UNITS": "%", "NUMERIC_READOUT": 4.36}
{"MOLECULE": "O=C(C1CCN(c2ccnc3ccc(Br)cc23)CC1)N1CCOCC1", "MEASUREMENT_UNITS": "%", "NUMERIC_READOUT": 15.6}
{"MOLECULE": "COc1cc(N2CC[C@@H]3O[C@H](C(=O)NCC4CC4)C[C@@H]32)ncn1", "MEASUREMENT_UNITS": "%", "NUMERIC_READOUT": 10.7}
{"MOLECULE": "Cc1cccn2cc(CN3CCCC(O)C3)nc12 (stereo not drawn)", "MEASUREMENT_UNITS": "%", "NUMERIC_READOUT": 2.25}
{"MOLECULE": "CC1(C)CC(NC(=O)c2cnn(-c3ccccc3F)c2N)CC(C)(C)N1", "MEASUREMENT_UNITS": "%", "NUMERIC_READOUT": -4.14}
{"MOLECULE": "Cc1cc(C(=O)N2C[C@@H]3CCCO[C@@H]3[C@H](N3CCOCC3)C2)c(C)[nH]1", "MEASUREMENT_UNITS": "%", "NUMERIC_READOUT": 4.5}
{"MOLECULE": "CNS(=O)(=O)c1ccc(CN2CCN3CCNC(=O)C3C2)cc1 (stereo not drawn)", "MEASUREMENT_UNITS": "%", "NUMERIC_READOUT": -6.22}
{"MOLECULE": "Cc1nccn1-c1cc(CNC(=O)CCC2CCCO2)ccn1 (stereo not drawn)", "MEASUREMENT_UNITS": "%", "NUMERIC_READOUT": -3.09}
{"MOLECULE": "CCN1C[C@H]2C3(CCN(C(=O)NC(C)C)CC3)CC[C@@]2(C(=O)NC)C1", "MEASUREMENT_UNITS": "%", "NUMERIC_READOUT": -106}
{"MOLECULE": "O=C(N1CCOCC1)N1CCc2ncnc(NC3CCC3)c2CC1", "MEASUREMENT_UNITS": "%", "NUMERIC_READOUT": -1.92}
{"MOLECULE": "CCn1cc(NC(=O)NCc2ccc(CN3CCOCC3)cc2)cn1", "MEASUREMENT_UNITS": "%", "NUMERIC_READOUT": -6.63}
{"MOLECULE": "O=C(c1ccc2[nH]cnc2c1)N1CCC(Oc2ccccn2)CC1", "MEASUREMENT_UNITS": "%", "NUMERIC_READOUT": 1.59}
{"MOLECULE": "CCn1nc(C)c(S(=O)(=O)N(C)c2ccc(Cl)cn2)c1C", "MEASUREMENT_UNITS": "%", "NUMERIC_READOUT": -2.13}
{"MOLECULE": "COc1cccc2c1OCC(C(=O)NCCc1nnc(C)s1)C2 (stereo not drawn)", "MEASUREMENT_UNITS": "%", "NUMERIC_READOUT": -42.1}
{"MOLECULE": "CN(C)C(=O)CN1C[C@H]2CCN(C(=O)c3ccncc3)CC[C@H]2S1(=O)=O", "MEASUREMENT_UNITS": "%", "NUMERIC_READOUT": -1.55}
{"MOLECULE": "CC(C)c1noc(CS(=O)(=O)CC(=O)NCC(F)(F)F)n1", "MEASUREMENT_UNITS": "%", "NUMERIC_READOUT": 7.62}
{"MOLECULE": "CN(Cc1ccc2c(c1)OCCO2)Cc1nc2c(cnn2C)c(=O)[nH]1", "MEASUREMENT_UNITS": "%", "NUMERIC_READOUT": -4.45}
{"MOLECULE": "CCN1CC2(CCC1=O)CCN(Cc1cscn1)CC2", "MEASUREMENT_UNITS": "%", "NUMERIC_READOUT": 2.48}
{"MOLECULE": "CCCN1C(=O)[C@@H]2[C@@H](CCN2C(=O)COC)N(Cc2cccs2)C1=O", "MEASUREMENT_UNITS": "%", "NUMERIC_READOUT": 0.121}
{"MOLECULE": "Cc1cccnc1CC(C)N(C)C(=O)c1ccoc1C (stereo not drawn)", "MEASUREMENT_UNITS": "%", "NUMERIC_READOUT": -12.6}
{"MOLECULE": "Cc1cc(CNC2CCc3nc(C(C)C)nn3C2)on1 (stereo not drawn)", "MEASUREMENT_UNITS": "%", "NUMERIC_READOUT": 7.61}
